Provide the recorded MIC Enterococcus faecalis (GC 4552) for the entries that follow.
System: Enterococcus sp.
EXPERIMENT NOTES: in vitro antibacterial evaluation, MIC by broth dilution
Assay type: cell-based
PARTICULARS: strain GC 4552; broth dilution, 18 hours at 35° C.
Source text: Methods for in vitro Antibacterial Evaluation (Table 1) […]
Numbered stars: 1 amine (or outer) side, 2 acyl side, 3 side chain; on linkers, the order of the positions; unused ones are H or OH. Square brackets hold non-standard residues; d marks the D form. Peptide text beside a SMILES is read from it. ξ: configuration not given here. X1 = N=C1NCC(C(O)C(N[*:1])C(=O)[*:2])N1C1OC(CO)C(O)C(O)C1O; ξEnduracididine(βξ-OH,4'ξ) = N=C1NCC(C(O)C(N)C(=O)O)N1; ξCha(3ξ-Me) = CC(C1CCCCC1)C(N)C(=O)O; Cha = N[CH](CC1CCCCC1)C(=O)O
Kindly answer with a numeric value in µg/mL, unit omitted.

Incoming: Look at this compound and give its reported MIC Enterococcus faecalis (GC 4552). COc1cc(OC)cc(C2OCC3OC(OC4C(CO)OC(Oc5ccc(CC6NC(=O)C(C(C)c7ccccc7)NC(=O)CNC(=O)C(CO)NC(=O)C(C(O)C7CNC(=N)N7C7OC(CO)C(O)C(O)C7O)NC(=O)C(C(O)C7CNC(=N)N7)NC6=O)cc5)C(O)C4O)C(O)C(O)C3O2)c1 (stereo not drawn) [Example 150]
Outgoing: 8

Incoming: Look at this compound and give its reported MIC Enterococcus faecalis (GC 4552). CC(C1CCCCC1)C1NC(=O)CNC(=O)C(CO)NC(=O)C(C(O)C2CNC(=N)N2C2OC(CO)C(O)C(O)C2O)NC(=O)C(C(O)C2CNC(=N)N2)NC(=O)C(CC2CCCCC2)NC1=O (stereo not drawn) [Example 53] (cyclo(G[ξCha(3ξ-Me)][Cha][ξEnduracididine(βξ-OH,4'ξ)][X1]S); configuration not given here)
Outgoing: 8

Incoming: Look at this compound and give its reported MIC Enterococcus faecalis (GC 4552). Cc1ccc(Oc2cccc(-c3nc4cc(CC5NC(=O)C(C(C)c6ccccc6)NC(=O)CNC(=O)C(CO)NC(=O)C(C(O)C6CNC(=N)N6C6OC(CO)C(O)C(O)C6O)NC(=O)C(C(O)C6CNC(=N)N6)NC5=O)ccc4o3)c2)cc1 (stereo not drawn) [Example 28]
Outgoing: 8

====

Test system: Staphylococcus sp.
EXPERIMENT NOTES: in vitro antibacterial evaluation, MIC by broth dilution
Type: cell-based
PARTICULARS: strain GC 4542; broth dilution, 18 hours at 35° C.
MEASURED QUANTITY: MIC Staphylococcus aureus (GC 4542)

Incoming: Look at this compound and give its reported MIC Staphylococcus aureus (GC 4542). CC(c1ccccc1)C1NC(=O)CNC(=O)C(CO)NC(=O)C(C(O)C2CNC(=NCc3ccccc3)N2C2OC(CO)C(O)C(O)C2O)NC(=O)C(C(O)C2CNC(=N)N2)NC(=O)C(Cc2ccc(OC3OC(CO)C(OC4OC5COC6(OC5C(O)C4O)C4CC5CC(C4)CC6C5)C(O)C3O)cc2)NC1=O (stereo not drawn) [Example 76]
Outgoing: 2 to 8 µg/mL

Incoming: Look at this compound and give its reported MIC Staphylococcus aureus (GC 4542). CC(c1ccccc1)C1NC(=O)CNC(=O)C(CO)NC(=O)C(C(O)C2CN(CCCCCCCCCCCCO)C(=N)N2C2OC(CO)C(O)C(O)C2O)NC(=O)C(C(O)C2CNC(=N)N2)NC(=O)C(Cc2ccc(OC3OC(CO)C(OC4OC(CO)C(O)C(O)C4O)C(O)C3O)cc2)NC1=O (stereo not drawn) [Example 61]
Outgoing: >128 µg/mL

Incoming: Look at this compound and give its reported MIC Staphylococcus aureus (GC 4542). CC(c1ccccc1)C1NC(=O)CNC(=O)C(CO)NC(=O)C(C(O)C2CN(CCCCCCCCCCC(=O)O)C(=N)N2C2OC(CO)C(O)C(O)C2O)NC(=O)C(C(O)C2CNC(=N)N2)NC(=O)C(Cc2ccc(OC3OC(CO)C(OC4OC(CO)C(O)C(O)C4O)C(O)C3O)cc2)NC1=O (stereo not drawn) [Example 72]
Outgoing: >128 µg/mL

meta.source: patent US6914045B2
